REPORTED METRIC: logP
Hey, just send me the number, nothing else.

Output measured logP for this item: O=C(O)CNc1ccccc1
0.62

Output measured logP for this item: C1=COCCC1
0.69

Output measured logP for this item: O=C(O)COc1cccc(Br)c1
2.22

Output measured logP for this item: COCC(C)OC (stereo not drawn)
-0.09

Output measured logP for this item: N#Cc1ccc(S(N)(=O)=O)cc1
0.23

Output measured logP for this item: OCC1CC1c1ccccc1 (stereo not drawn)
1.95

Output measured logP for this item: Nc1c(S(=O)(=O)O)ccc2ccccc12
-0.97

Output measured logP for this item: CNC(=O)Oc1ccc([N+](=O)[O-])cc1
1.47

----------
Peptide text beside a SMILES is read from it.
REPORTED METRIC: logP

Output measured logP for this item: FC(F)(F)c1cccc(C2CNCCO2)c1 (configuration not stated)
2.18

Output measured logP for this item: CC(=O)N(c1ccccc1)c1ccccc1
2.02

Output measured logP for this item: COC(=S)NCCn1c([N+](=O)[O-])cnc1C
1.15

Output measured logP for this item: CN(C)C(=O)Nc1ccc(C(C)(C)C)cc1
3.1

Output measured logP for this item: CC(=O)Oc1ccccc1C(=O)O
1.19

Output measured logP for this item: CNc1ccccc1
1.66

Output measured logP for this item: FC(F)(Cl)Cl
2.16

Output measured logP for this item: C/C(=N/Nc1nc(C)cc(C)n1)c1ccccc1C
2.98

Output measured logP for this item: C(=C\c1ccccc1)/c1ccccc1
4.81

Output measured logP for this item: C[C@]12CC[C@H]3[C@@H](CCC4=CC(=O)CC[C@@]43C)[C@@H]1CC[C@@H]2C(=O)CO
2.88

Output measured logP for this item: O=C(CCBr)N1CCN(C(=O)CCBr)CC1
0.42

Output measured logP for this item: CC(=O)C(C)(C)C
1.2

Output measured logP for this item: c1ccc(C23CCN(CC2)CC3)cc1
2.54

Output measured logP for this item: O=C(O)c1cc([N+](=O)[O-])cc([N+](=O)[O-])c1
1.55

Output measured logP for this item: O=C(Nc1ccccc1)N(c1ccccc1)c1ccccc1
3.28

Output measured logP for this item: OCc1ccc(Cl)cc1
1.96

Output measured logP for this item: C=CCCCCCCC
5.15

Output measured logP for this item: O=C(O)Cc1ccccc1Nc1ccc(Cl)c(Cl)c1
4.9

Output measured logP for this item: Cc1cc(N)ncn1
0.19

Output measured logP for this item: Nc1ccc(S(=O)(=O)Nc2ccccc2Cl)cc1
2

Output measured logP for this item: NNC(=O)c1cccc(O)c1
-0.08

Output measured logP for this item: CC[C@H](C)[C@H](NC(=O)[C@H](Cc1c[nH]c2ccccc12)NC(C)=O)C(=O)NCC(N)=O (Ac-Trp-Ile-Gly-NH2)
0.62

Output measured logP for this item: CC(=O)c1cccc(OC(=O)N(C)C)c1
1.18

Output measured logP for this item: COc1ccc(C(C[N+](=O)[O-])c2ccc(OC)cc2)cc1
3.57

Output measured logP for this item: CCCN(CCC)CC(=O)OCn1ncc2c(=O)[nH]cnc21
1.27

Output measured logP for this item: CNC(=S)NNc1ccccc1
1.17

Output measured logP for this item: NC(=O)C(Cc1ccccc1)NC(=O)C(N)Cc1ccccc1 (configuration not stated)
1.13

Output measured logP for this item: CCCNC(C)CC (configuration not stated)
1.91

Output measured logP for this item: Cc1ccc(/N=C/N(C)/C=N/c2ccc(C)cc2C)c(C)c1
5.5

Output measured logP for this item: O=C(O)c1ccc(CO)cc1
0.93

Output measured logP for this item: c1ccc(Cn2nccn2)cc1
1.56

Output measured logP for this item: CCN(CC)CCSC(=NO)c1nc(-c2cccc3ccccc23)no1
3.87

Output measured logP for this item: O=C(CN1CCCCC1)Nc1ccc(F)cc1
2.7

Output measured logP for this item: Oc1cccc2cccnc12
2.02

Output measured logP for this item: O=Cc1ccc([N+](=O)[O-])o1
1.01

Output measured logP for this item: c1ccc(Oc2ccccn2)cc1
2.39

Output measured logP for this item: Oc1ccccc1O
0.88

Output measured logP for this item: O=[N+]([O-])c1cccc(SSc2cccc([N+](=O)[O-])c2)c1
4.06

Output measured logP for this item: CON(C)C(=O)Nc1ccc(Cl)c(Cl)c1
3.2

Output measured logP for this item: C=C(C)C(=O)OC
1.38

Output measured logP for this item: COc1ccc(OCC(=O)NNC(C)C)cc1
1.21

Output measured logP for this item: NS(=O)(=O)CCCOc1ccc([N+](=O)[O-])cc1
0.97

Output measured logP for this item: Cc1ccc2ccccc2c1
3.86

Output measured logP for this item: N#CC(=Cc1ccccc1)C(N)=O
1.56

Output measured logP for this item: COc1ccccc1[N+](=O)[O-]
1.73

Output measured logP for this item: Cn1c([N+](=O)[O-])cnc1-c1nc2ccccc2n1CCCN1CCOCC1
1.8

Output measured logP for this item: Cc1cccc(C)c1C
3.66

Output measured logP for this item: CN(C)C(=O)OCc1ccc(OCc2ccccc2)cc1
3.27

Output measured logP for this item: N#CCC(=O)O
-0.76

Output measured logP for this item: COc1cccc2cccnc12
1.84

Output measured logP for this item: CC(=O)c1cnc2ccccc2c1
1.76

Output measured logP for this item: Nc1ccc(S(=O)(=O)Nc2ccnn2-c2ccccc2)cc1
1.52
